- Assay protocol: chemical genetic growth profiling, strain panel (AID 1159580);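 note: tested at 20 µM; growth read once vehicle control cultures reached saturation at 30 °C; lower values mean less growth of the strain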
- Run parameters: S. cerevisiae deletion strains, growth OD, locus YEL061C, strain CIN8 (second series)
Among all 5,500 compounds or so, about 2,000 (36%) were called active. Inconclusive results (about 18%) are left out. Cut-off read from the data, not from the text of the source: active = normalized growth mostly below about 0.91 (no sharp cut-off); inconclusive = no clear call, values can overlap the other calls; inactive = mostly above about 0.92. Some of the results follow.
Entry note: the call must match one of TRUE for active, FALSE for inactive

-- ask Record request — test call for Cc1oncc1C(=O)Nc1ccc(C(F)(F)F)cc1
-- reply FALSE

-- ask Record request — test call for NCCCCCC(=O)O
-- reply FALSE

-- ask Record request — test call for Clc1ccc(COC(Cn2ccnc2)c2ccc(Cl)cc2Cl)cc1 (stereo not given)
-- reply TRUE

-- ask Record request — test call for COC[C@]12CN(C=O)C3[C@@H]4[C@H](OC)C1[C@]3(C1CC3(O)C(OC)C(O)C4(OC(C)=O)C1C3OC(=O)c1ccccc1)[C@@H](OC)C[C@H]2O (stereo not given in full)
-- reply FALSE

-- ask Record request — test call for CCCCCCCCCCCCCC(=O)OC1C(C)C2(O)C(C=C(CO)CC3(O)C(=O)C(C)=CC32)C2C(C)(C)C12OC(C)=O (stereo not given)
-- reply FALSE

-- ask Record request — test call for CC1(C)C(=O)[C@@H]2O[C@@H]2[C@@]2(C)C1C[C@@H](O)[C@]1(C)C2CC[C@@]2(C)[C@H](c3ccoc3)OC(=O)C3OC321 (stereo not given in full)
-- reply FALSE

-- ask Record request — test call for C[C@@H]1CC2C3CCC4=CC(=O)C=C[C@]4(C)[C@@]3(F)[C@@H](O)C[C@]2(C)[C@@]1(O)C(=O)CO (stereo not given in full)
-- reply FALSE

-- ask Record request — test call for CCCNC(=O)NS(=O)(=O)c1ccc(Cl)cc1
-- reply FALSE

-- ask Record request — test call for NC(C(=O)O)C(O)C(=O)O (stereo not given)
-- reply FALSE

-- ask Record request — test call for CC(=O)O[C@H]1CC[C@@]2(C)C(C[C@@H](OC(C)=O)[C@]3(C)C2CC[C@@]2(C)[C@H](c4ccoc4)OC(=O)[C@H]4O[C@]423)C1(C)C (stereo not given in full)
-- reply FALSE

-- ask Record request — test call for Cc1cc(CC(=O)O)n(C)c1C(=O)c1ccc(Cl)cc1
-- reply FALSE

-- ask Record request — test call for NC(=O)CS(=O)C(c1ccccc1)c1ccccc1 (stereo not given)
-- reply FALSE

-- ask Record request — test call for NC(N)=NCCN1CCCCCCC1
-- reply FALSE

-- ask Record request — test call for COc1ccc2nc(S(=O)Cc3ncc(C)c(OC)c3C)[nH]c2c1 (stereo not given)
-- reply FALSE

-- ask Record request — test call for O=C(O)[C@@H](S)[C@@H](S)C(=O)O
-- reply FALSE

-- ask Record request — test call for CC(=O)O[C@H]1C[C@@H](OC(C)=O)C(C)(C)C2C[C@@H](OC(C)=O)[C@]3(C)C(CC[C@@]4(C)[C@H](c5ccoc5)OC(=O)[C@H]5O[C@]543)[C@]21C (stereo not given in full)
-- reply FALSE

-- ask Record request — test call for CC(=O)O[C@@H]1CC2C(C)(C)C(=O)C3OC3[C@]2(C)C2CC[C@@]3(C)[C@H](c4ccoc4)OC(=O)C4OC43[C@@]21C (stereo not given in full)
-- reply FALSE

-- ask Record request — test call for CC(=O)O[C@]1(C)CC[C@@]23CC1C(C)(C)[C@@H]2CC[C@H]3C
-- reply FALSE

-- ask Record request — test call for CC(=O)O[C@@H]1CC2C(C)(C)[C@H](O)C=C[C@]2(C)C2CC[C@@]3(C)[C@H](c4ccoc4)OC(=O)C4OC43[C@@]21C (stereo not given in full)
-- reply FALSE

-- ask Record request — test call for CC1(C)N([O-])[N+](=O)C1(C)Br (stereo not given)
-- reply FALSE

-- ask Record request — test call for COc1cc(C)c2c(=O)cc(-c3ccccc3)oc2c1
-- reply FALSE

-- ask Record request — test call for NCCCCC(=O)O
-- reply FALSE

-- ask Record request — test call for O=c1cccc2n1CC1CC2CN2CCCC[C@@H]12 (stereo not given in full)
-- reply FALSE

-- ask Record request — test call for NC(N)=NCCCCN=C(N)N
-- reply FALSE

-- ask Record request — test call for NC(=O)NC1NC(=O)NC1=O (stereo not given)
-- reply FALSE

-- ask Record request — test call for CC(=O)O[C@H]1C[C@@H](OC(C)=O)C(C)(C)C2C[C@@H](O)[C@]3(C)C(CC[C@@]4(C)[C@H](c5ccoc5)OC(=O)[C@H]5O[C@]543)[C@]21C (stereo not given in full)
-- reply FALSE

-- ask Record request — test call for CC(=O)O[C@@H]1CC2C(C)(C)[C@@H](O)CC[C@]2(C)C2CC[C@@]3(C)[C@H](c4ccoc4)OC(=O)[C@H]4O[C@]43[C@@]21C (stereo not given in full)
-- reply FALSE

-- ask Record request — test call for CC12CCCCC1(Br)[N+](=O)N2[O-] (stereo not given)
-- reply FALSE

-- ask Record request — test call for COc1ccc2c(c1)OCC(Cc1ccc(OC)c(OC)c1)C2=O (stereo not given)
-- reply FALSE

-- ask Record request — test call for N[C@@H](C(=O)O)[C@@H](O)[C@H](O)[C@H](O)CO
-- reply FALSE

-- ask Record request — test call for CC(=O)O[C@@H]1CC2C(C)(C)[C@H](O)CC[C@]2(C)C2CC[C@@]3(C)[C@H](c4ccoc4)OC(=O)C4OC43[C@@]21C (stereo not given in full)
-- reply FALSE

-- ask Record request — test call for Clc1ccc(CO/N=C(/Cn2ccnc2)c2ccc(Cl)cc2Cl)c(Cl)c1
-- reply TRUE

-- ask Record request — test call for CC(O)(P(=O)(O)O)P(=O)(O)O
-- reply FALSE

-- ask Record request — test call for CN1CCC[C@@H]1CCO[C@](C)(c1ccccc1)c1ccc(Cl)cc1
-- reply FALSE

-- ask Record request — test call for CC(=O)OCC(=O)[C@@]1(O)CCC2C3CCC4=CC(=O)C=CC4(C)C3[C@@H](O)C[C@@]21C (stereo not given in full)
-- reply FALSE

-- ask Record request — test call for COc1ccc2c(c1)OCC(Cc1ccc(O)c(OC)c1)C2=O (stereo not given)
-- reply FALSE

-- ask Record request — test call for COc1cc(NS(C)(=O)=O)ccc1Cc1c2ccccc2nc2ccccc12
-- reply FALSE

-- ask Record request — test call for COC(=O)[C@@H]1OC(=O)C2OC23[C@@]1(C)CCC1[C@]2(C)C(C[C@@H](O)[C@]13C)C(C)(C)[C@H](OC(C)=O)C[C@@H]2OC(C)=O (stereo not given in full)
-- reply FALSE

-- ask Record request — test call for COc1cc2c(cc1OC)C1(O)C(=O)c3ccc(O)c(C(=O)O)c3OC1CO2 (stereo not given)
-- reply FALSE

-- ask Record request — test call for CC(C)=CC1C(C(=O)OCc2cccc(Oc3ccccc3)c2)C1(C)C (stereo not given)
-- reply FALSE
